These entries and their values trace back to the supplement of paper PMC12042874.

# method-description: amyloid nucleation score (Sup35N fusion, yeast selection) (log enrichment); library NNK2; higher = more nucleation; inactive = no reads after selection;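 further: zero at mode of non-aggregating sequences after 7 days selection at 30°C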
measurement-kind: amyloid nucleation score
Output spec: single numeric token, no unit.

Exam item: Find the measured amyloid nucleation score of `YYYTLLSLHHMFCVTYELSG` and report it.
Marked response: 5.44

Exam item: Hello, please tell me recorded amyloid nucleation score for this one: `CVGGWWPRQRLFCIWFIIAV`
Marked response: 1.72

Exam item: Please report the measured amyloid nucleation score for `IMDLAKVCEGVLSSGRVALI`
Marked response: 0.096

Exam item: Quickly give me recorded amyloid nucleation score for `FWVPSLSTYLSFFGKFRDWA`
Marked response: -0.347

Exam item: Return the recorded amyloid nucleation score value; entry: `SVRNNLAVGDKLFNVTADCN`
Marked response: 0.168

Exam item: Find the measured amyloid nucleation score of `CLFVTVGFCICCLFFLWFCL` and report it.
Marked response: 5

Exam item: Identify amyloid nucleation score associated with the substance `SSNSANVILASYEDYRRVNP`
Marked response: -0.526

Exam item: Consider the substance `SSASFSVHQYCYLLNPSF` . State its measured amyloid nucleation score.
Marked response: 1.45

Exam item: Return reported amyloid nucleation score. Input substance: `MMHEYAAGGLSSGLFWDMSG`
Marked response: -0.623

Exam item: Provide only the value of recorded amyloid nucleation score for `VWYRLTDAVYKRLTFLDII`
Marked response: -0.416

Exam item: Indicate the recorded amyloid nucleation score value for this substance: `GLLPFGISAMNLRFHQGVAR`
Marked response: -0.359

Exam item: Give me measured amyloid nucleation score, please, for this substance: `YQIAWI`
Marked response: -0.719

Exam item: Report amyloid nucleation score for `SPYAFACAGCSGVKG`
Marked response: 0.234

Exam item: Given the substance `QGVSVLFGVSATLY` , write its reported amyloid nucleation score.
Marked response: 1.19

Exam item: Quote amyloid nucleation score reported for `FVSLTLCCYGEGDVPLREVQ` please.
Marked response: 1.9

Exam item: Indicate the recorded amyloid nucleation score value for this substance: `FLSWCFW`
Marked response: 0.841
